Just for reference, patent US3984415A is where these values come from.

Protocol Notes: Anti-inflammatory effect (carrageenin edema of hind paw)
Assay type: in vivo, Wistar-strain male rats
Setup Conditions: Rattus norvegicus, po; dose 50 mg/kg, orally, rats, 3 hours; read-out: anti-inflammatory effect (inhibition percentage of carrageenin edema)
# inhibition in vivo at 50 mg/kg per record follows

Compound	Property	Result Value
CCCn1c(=O)c2cccnc2n(-c2cccc(Br)c2)c1=O [--CH2 CH2 CH3, reference compound]	inhibition in vivo at 50 mg/kg	46 to 60%
C=CCn1c(=O)c2cccnc2n(-c2cccc([N+](=O)[O-])c2)c1=O [Compound 9]	inhibition in vivo at 50 mg/kg	> 61%
O=C(O)Cn1c(=O)c2cccnc2n(-c2cccc([N+](=O)[O-])c2)c1=O [Compound 26]	inhibition in vivo at 50 mg/kg	31 to 45%

Q: Specify measured inhibition in vivo at 50 mg/kg for CCOC(=O)Cn1c(=O)c2cccnc2n(-c2cccc([N+](=O)[O-])c2)c1=O [Compound 27] .
Ans: 46 to 60%

Q: Specify measured inhibition in vivo at 50 mg/kg for CCn1c(=O)c2cccnc2n(-c2cccc(C(F)(F)F)c2)c1=O [--C2 H5, reference compound] .
Ans: > 61%

Q: Specify measured inhibition in vivo at 50 mg/kg for O=c1c2cccnc2n(-c2cccc([N+](=O)[O-])c2)c(=O)n1CCCl [Compound 14] .
Ans: 46 to 60%

Q: Specify measured inhibition in vivo at 50 mg/kg for C#CCn1c(=O)c2cccnc2n(-c2cccc([N+](=O)[O-])c2)c1=O [Compound 12] .
Ans: 46 to 60%

Q: Specify measured inhibition in vivo at 50 mg/kg for Cc1c(N(C)C)c(=O)n(-c2ccccc2)n1C [aminopyrine, reference compound] .
Ans: < 15%

Q: Specify measured inhibition in vivo at 50 mg/kg for CCCCC1C(=O)N(c2ccccc2)N(c2ccccc2)C1=O [phenylbutazone, reference compound] .
Ans: 31 to 45%

* * *

# acute toxicity (lethal dose) per record follows
Test system: dd-strain male mice
Setup Conditions: p.o., 72 hours

The examples below pair each entry with its known result.
Molecule	acute toxicity (lethal dose)
O=c1c2cccnc2n(-c2cccc([N+](=O)[O-])c2)c(=O)n1CCO [Compound 18]	> 2000 mg/kg
CCCn1c(=O)c2cccnc2n(-c2cccc([N+](=O)[O-])c2)c1=S [Compound 35]	> 2000 mg/kg
Cn1c(=O)c2cccnc2n(-c2cccc(Cl)c2)c1=O [--CH3, reference compound]	> 1000 mg/kg
CC(=O)OCCn1c(=O)c2cccnc2n(-c2cccc([N+](=O)[O-])c2)c1=O [Compound 21]	2000 mg/kg
CCn1c(=O)c2cccnc2n(-c2cccc(C(F)(F)F)c2)c1=O [--C2 H5, reference compound]	665 mg/kg
CCn1c(=O)c2cccnc2n(-c2cccc([N+](=O)[O-])c2)c1=S [Compound 34]	> 2000 mg/kg
C=CCn1c(=O)c2cccnc2n(-c2cccc([N+](=O)[O-])c2)c1=O [Compound 9]	> 2000 mg/kg

Next item in the queue.
Q: Specify measured acute toxicity (lethal dose) for O=c1c2cccnc2n(-c2cccc([N+](=O)[O-])c2)c(=S)n1CC(F)(F)F [Compound 39] .
Ans: > 2000 mg/kg

* * *

Protocol Notes: Analgetic effect (acetic acid writhing syndrome)
Format: in vivo, dd-strain male mice
Setup Conditions: Mus musculus, po; orally, mice, acetic acid writhing
# ED50 per record follows

The examples below pair each entry with its known result.
Structure Smiles String	ED50
CCCn1c(=O)c2cccnc2n(-c2cccc([N+](=O)[O-])c2)c1=S	~1000 mg/kg
O=c1c2cccnc2n(-c2cccc([N+](=O)[O-])c2)c(=O)n1CCCO	~1 mg/kg
O=c1c2cccnc2n(-c2cccc([N+](=O)[O-])c2)c(=O)n1CCc1ccccc1	> 100 mg/kg
O=C(Cn1c(=O)c2cccnc2n(-c2cccc([N+](=O)[O-])c2)c1=O)c1ccc(Cl)cc1	> 100 mg/kg

Next item in the queue.
Q: Specify measured ED50 for CCn1c(=O)c2cccnc2n(-c2cccc([N+](=O)[O-])c2)c1=S .
Ans: ~0.2 mg/kg
